# TESTED TARGET: BCDIN3D (Homo sapiens)
# Sequence (Q7Z5W3 1-292): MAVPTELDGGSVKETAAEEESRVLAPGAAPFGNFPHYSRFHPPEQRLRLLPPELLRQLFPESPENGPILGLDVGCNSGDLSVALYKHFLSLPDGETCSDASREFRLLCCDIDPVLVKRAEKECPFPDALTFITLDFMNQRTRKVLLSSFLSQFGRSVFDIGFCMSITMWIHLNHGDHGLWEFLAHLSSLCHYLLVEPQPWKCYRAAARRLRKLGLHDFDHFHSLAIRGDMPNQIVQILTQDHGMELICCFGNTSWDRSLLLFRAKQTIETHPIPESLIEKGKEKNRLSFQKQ
# PROCEDURE SUMMARY: BCDIN3D IC50 RFMS (RapidFire) assay with mini-helix
# Type: biochemical
# CONDITION NOTES: mini-helix substrate 0.2 μM, SAM 6 μM, 25 nM enzyme
pIC50: −log10 of the molar value.
QUANTITY KIND: pIC50

// known answers, use as guide
COMPOUND: C[C@@H](Nc1nc(NC[C@H](N)c2ccccc2)nc2c1cnn2C)C1CC1
pIC50: 6.74
--
COMPOUND: C[C@H](Nc1nc(NC[C@H](N)c2ccccc2)nc2c1cnn2C)C(F)(F)F [Compound 4.76]
pIC50: 6.87

[1] Cc1ccc(CNc2nc(NC[C@H](C)N)nc3c2cnn3C)cc1Cl
[2] Cn1ncc2c(Nc3ccc(F)cc3F)nc(NCC3(N)CC3)nc21
Which value of pIC50 is greater, the one for 1 or the one for 2 ? Answer = label. 2

[P] Cc1ccc(Nc2nc(NCC3(N)CC3)nc3c2cnn3C)cc1Cl
[Q] CNc1nc(NCC(N)c2ccc(C#N)cc2)nc2c1cnn2C (stereo not drawn)
[R] Cc1ccc(CNc2nc(NCC(N)c3ccccn3)nc3c2cnn3C)cc1Cl (stereo not drawn)
Arrange the 3 compounds from largest to smallest pIC50. Please list the labels in the order you were asked to rank them. P, R, Q
(P: 7.40, R: 6.66, Q: 5.41)

====

# TESTED TARGET: BCDIN3D (Homo sapiens, UniProt Q7Z5W3)
# Sequence (Q7Z5W3 1-292): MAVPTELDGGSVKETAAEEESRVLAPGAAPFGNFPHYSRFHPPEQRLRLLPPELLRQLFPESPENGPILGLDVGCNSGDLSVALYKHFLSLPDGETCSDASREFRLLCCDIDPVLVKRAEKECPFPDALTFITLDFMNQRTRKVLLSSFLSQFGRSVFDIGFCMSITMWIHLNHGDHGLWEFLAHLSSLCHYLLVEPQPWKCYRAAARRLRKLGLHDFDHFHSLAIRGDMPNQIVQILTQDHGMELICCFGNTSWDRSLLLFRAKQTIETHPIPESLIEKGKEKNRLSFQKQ
# PROCEDURE SUMMARY: BCDIN3D IC50 RFMS (RapidFire) assay with mini-helix
# Type: biochemical
# CONDITION NOTES: mini-helix substrate 0.2 μM, SAM 6 μM, 25 nM enzyme
QUANTITY KIND: IC50 (nM)

[P] Cn1ncc2c(NC(C)(C)C)nc(NCC(N)c3cccc(C#N)c3)nc21 (centres unmarked)
[Q] Cn1ncc2c(Nc3ccc(C(F)(F)F)cc3)cc(NCC3(N)CC3)nc21
Could you tell me which of these two has the smaller IC50 figure? First: P Second: Q Kindly state the label of the option you pick. P
(P: 42.8 nM, Q: 6900 nM)
